Recorded values, source paper PMC3700072.

# Test system: gastric mucosa of rats
# Experimental details: gastric ulcerogenic effect (Meshali's method, ulcer index by Robert's method)
# Assay type: in vivo, rat
# Design: key: ulcer index = %incidence/10 + avg no. of ulcers + avg severity (0–4)
# Measurement setup: oral 10 mg/kg on three days, sum of the 3 figures
As shown below, each of these molecules has a reported Ulcer index value.
Number only, no unit.

INSERT INTO results (molecule, tested_on, observed_result) VALUES
  ('Cc1nc2c(cnn2-c2ccccc2)c(=O)n1N=c1scc(-c2ccccc2)n1-c1ccc(Cl)cc1 [Compound 11d]', 'gastric mucosa of rats', 10.20),
  ('COc1ccc2c(c1)c(CC(=O)O)c(C)n2C(=O)c1ccc(Cl)cc1 [Indomethacin, reference compound]', 'gastric mucosa of rats', 17.26),
  ('Cc1nc2c(cnn2-c2ccccc2)c(=O)n1N=c1scc(-c2ccc(Cl)cc2)n1-c1ccc(Cl)cc1 [Compound 11f]', 'gastric mucosa of rats', 7.10),
  ('Cc1nc2c(cnn2-c2ccccc2)c(=O)n1N=c1scc(-c2ccc(Br)cc2)n1-c1ccc(Cl)cc1 [Compound 11e]', 'gastric mucosa of rats', 4.55);

Req: Look up and report measured Ulcer index for this entry: Cc1nc2c(cnn2-c2ccccc2)c(=O)n1N=c1scc(-c2ccccc2)n1-c1ccccc1 [Compound 11a]
Resp: 8.98

Req: // Input: Cc1nc2c(cnn2-c2ccccc2)c(=O)n1N=C1SCC(=O)N1c1ccc(Cl)cc1 [Compound 10b] . Output its Ulcer index only.
Resp: 8.05

Req: Give me measured Ulcer index, please, for this molecule: Cc1nc2c(cnn2-c2ccccc2)c(=O)n1N=c1scc(-c2ccc(Cl)cc2)n1-c1ccccc1 [Compound 11c]
Resp: 9.23

Req: Return Ulcer index for the following molecule: Cc1nc2c(cnn2-c2ccccc2)c(=O)n1N=c1scc(-c2ccc(Br)cc2)n1-c1ccccc1 [Compound 11b]
Resp: 10.53

* * *

Measurement kind: melting point

// below: answered compounds
INSERT INTO results (compound, observed_result) VALUES
  ('Cc1nc2c(cnn2-c2ccccc2)c(=O)n1N=c1scc(-c2ccc(Cl)cc2)n1-c1ccccc1 [Compound 11c]', '258 to 259 °C'),
  ('Cc1nc2c(cnn2-c2ccccc2)c(=O)n1N=c1scc(-c2ccc(Br)cc2)n1-c1ccccc1 [Compound 11b]', '248 to 252 °C');

Then this compound:
Req: Supply melting point value. Item: Cc1nc2c(cnn2-c2ccccc2)c(=O)n1N=c1scc(-c2ccccc2)n1-c1ccccc1 [Compound 11a]
Resp: 258 to 260 °C

* * *

# System: carrageenan-induced rat paw edema
# Experimental details: carrageenan-induced rat paw edema test
# Assay type: in vivo
# Set-up: unit not given here
# Measurement setup: rats, 10 mg/kg intraperitoneally, 4 h after carrageenan, N = 6
Measurement kind: Mean increase in edema weight ± SEM
# answer = number (no unit)

Examples with answers:
INSERT INTO measurements (compound, measurement_kind, observed_result) VALUES
  ('Cc1nc2c(cnn2-c2ccccc2)c(=O)n1N=c1scc(-c2ccc(Br)cc2)n1-c1ccc(Cl)cc1 [Compound 11e]', 'Mean increase in edema weight ± SEM', 0.52),
  ('Cc1nc2c(cnn2-c2ccccc2)c(=O)n1N1C(=O)CC(=O)N(c2ccc(Cl)cc2)C1=S [Compound 12b]', 'Mean increase in edema weight ± SEM', 0.85),
  ('Cc1nc2c(cnn2-c2ccccc2)c(=O)n1N=Cc1ccccc1 [Compound 7a]', 'Mean increase in edema weight ± SEM', 1.03),
  ('Cc1nc2c(cnn2-c2ccccc2)c(=O)n1NC(=S)Nc1ccccc1 [Compound 9a]', 'Mean increase in edema weight ± SEM', 0.90),
  ('O=c1c2cnn(-c3ccccc3)c2nc2ccc(-c3ccccc3)nn12 [Compound 16]', 'Mean increase in edema weight ± SEM', 1.13);

Req: Report measured Mean increase in edema weight ± SEM on carrageenan-induced rat paw edema; entry: CCOC(=O)c1cc2nc3c(cnn3-c3ccccc3)c(=O)n2nc1N [Compound 14]
Resp: 0.87

* * *

Measurement kind: melting point

INSERT INTO measurements (compound, observed_result) VALUES
  ('Cc1nc2c(cnn2-c2ccccc2)c(=O)n1N1C(=O)CSC1c1ccccc1 (stereo not drawn)', '179 to 181 °C'),
  ('CCOC(=O)c1cc2nc3c(cnn3-c3ccccc3)c(=O)n2nc1N', '155 to 156 °C'),
  ('Cc1nc2c(cnn2-c2ccccc2)c(=O)n1N=Cc1ccccc1', '184 to 186 °C'),
  ('Cc1nc2c(cnn2-c2ccccc2)c(=O)n1NC(=S)Nc1ccccc1', '145 to 150 °C'),
  ('Cc1nc2c(cnn2-c2ccccc2)c(=O)n1N=c1scc(-c2ccc(Br)cc2)n1-c1ccc(Cl)cc1 [Compound 11e]', '261 to 263 °C'),
  ('Cc1nc2c(cnn2-c2ccccc2)c(=O)n1N1C(=O)CC(=O)N(c2ccc(Cl)cc2)C1=S [Compound 12b]', '198 to 201 °C');

Req: Identify melting point associated with the compound Cc1nc2c(cnn2-c2ccccc2)c(=O)n1N1C(=O)CSC1c1ccc(Cl)cc1 (stereo not drawn)
Resp: 191 to 195 °C

Req: Let me know recorded melting point for Nn1c(C=O)nc2c(cnn2-c2ccccc2)c1=O , thanks.
Resp: 145 to 146 °C

Req: Read the entry Cc1nc2c(cnn2-c2ccccc2)c(=O)n1NC(=S)Nc1ccc(Cl)cc1 and write its reported melting point.
Resp: 157 to 160 °C

* * *

# System: gastric mucosa of rats
# Experimental details: gastric ulcerogenic effect (Meshali's method, ulcer index by Robert's method)
# Format: in vivo, rat
# Measurement setup: oral 10 mg/kg on three days, 5 animals per group
% Incidence/10 values by entry
Please give only the number in your answer, with no unit.

INSERT INTO assay_data (compound, observed_result) VALUES
  ('Cc1nc2c(cnn2-c2ccccc2)c(=O)n1N=c1scc(-c2ccc(Cl)cc2)n1-c1ccccc1 [Compound 11c]', 6),
  ('COc1ccc2c(c1)c(CC(=O)O)c(C)n2C(=O)c1ccc(Cl)cc1 [Indomethacin, reference compound]', 10),
  ('Cc1nc2c(cnn2-c2ccccc2)c(=O)n1N=c1scc(-c2ccc(Br)cc2)n1-c1ccccc1 [Compound 11b]', 8),
  ('Cc1nc2c(cnn2-c2ccccc2)c(=O)n1N=c1scc(-c2ccc(Br)cc2)n1-c1ccc(Cl)cc1 [Compound 11e]', 2),
  ('Cc1nc2c(cnn2-c2ccccc2)c(=O)n1N=C1SCC(=O)N1c1ccc(Cl)cc1 [Compound 10b]', 6);

Req: Please report % Incidence/10 for the following compound: Cc1nc2c(cnn2-c2ccccc2)c(=O)n1N=c1scc(-c2ccccc2)n1-c1ccc(Cl)cc1 [Compound 11d]
Resp: 8

Req: Look up % Incidence/10 of Cc1nc2c(cnn2-c2ccccc2)c(=O)n1N=c1scc(-c2ccccc2)n1-c1ccccc1 [Compound 11a] and report it.
Resp: 6

Req: Retrieve % Incidence/10 measured for Cc1nc2c(cnn2-c2ccccc2)c(=O)n1N=c1scc(-c2ccc(Cl)cc2)n1-c1ccc(Cl)cc1 [Compound 11f] and print it.
Resp: 4

* * *

# Tested on: gastric mucosa of rats
# Experimental details: gastric ulcerogenic effect (Meshali's method, ulcer index by Robert's method)
# Format: in vivo, rat
# Measurement setup: oral 10 mg/kg
Measurement kind: % ulceration in the population of test animals (%)
Form entry: value (%) — number only.

INSERT INTO results (molecule, result_unit, observed_result) VALUES
  ('Cc1nc2c(cnn2-c2ccccc2)c(=O)n1N=c1scc(-c2ccc(Br)cc2)n1-c1ccccc1 [Compound 11b]', '%', 80);

Let us move to another entry and its % ulceration in the population of test animals.
Req: Enter recorded % ulceration in the population of test animals with gastric mucosa of rats for Cc1nc2c(cnn2-c2ccccc2)c(=O)n1N=c1scc(-c2ccc(Br)cc2)n1-c1ccc(Cl)cc1 [Compound 11e] here.
Resp: 20

* * *

Examples of compounds with documented % Activity relative to indomethacine follow.
# System: carrageenan-induced rat paw edema
# Experimental details: carrageenan-induced rat paw edema test
# Type: in vivo
# Measurement setup: rats, 10 mg/kg intraperitoneally, 4 h after carrageenan; indomethacin = 100
Report the figure in % without appending any unit label.

See these solved cases before continuing.
INSERT INTO measurements (compound, measurement_kind, observed_result) VALUES
  ('CCOC(=O)c1cc2nc3c(cnn3-c3ccccc3)c(=O)n2nc1N [Compound 14]', '% Activity relative to indomethacine', 65.43),
  ('Cc1nc2c(cnn2-c2ccccc2)c(=O)n1N1C(=O)CSC1c1ccccc1 (centres unmarked) [Compound 8a]', '% Activity relative to indomethacine', 55.14),
  ('Cc1nc2c(cnn2-c2ccccc2)c(=O)n1N=Cc1ccc(Cl)cc1 [Compound 7b]', '% Activity relative to indomethacine', 53.28),
  ('CCOC(=O)c1cc2nc3c(cnn3-c3ccccc3)c(=O)n2[nH]c1=O [Compound 15]', '% Activity relative to indomethacine', 60.75);

Req: Answer with reported % Activity relative to indomethacine of Cc1nc2c(cnn2-c2ccccc2)c(=O)n1N=c1scc(-c2ccc(Cl)cc2)n1-c1ccccc1 [Compound 11c]
Resp: 79.44
